Reference source: PubChem BioAssay

# ASSAY OVERVIEW: ovarian cancer cell viability with rucaparib, profiling panel, oncology-focused library, rucaparib conditional (AID 1508598)
# PARTICULARS: patient-derived ovarian cancer cells, CellTiter-Glo viability, 144 h; at 0.00122 µM; OCI-C5x cells; without rucaparib
The source made the active and inactive calls.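 The calls were made as follows: active = normalized viability below 100% at a tested concentration; inactive = the rest.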
Classes used: active, inactive

| MOLECULE | ASSIGNED CATEGORY |
| --- | --- |
| CNC(=O)c1cc(Oc2ccc(NC(=O)Nc3ccc(Cl)c(C(F)(F)F)c3)cc2)ccn1 | inactive |
| CN(C)c1nc(N(C)C)nc(N(C)C)n1 | inactive |
| Cc1ccc(-n2nc(C(C)(C)C)cc2NC(=O)Nc2ccc(OCCN3CCOCC3)c3ccccc23)cc1 | inactive |
| Nc1cccc2c1CN(C1CCC(=O)NC1=O)C2=O (stereo unspecified) | inactive |
| O=c1[nH]c(=O)n([C@H]2CCCO2)cc1F | inactive |
| COc1c(C)c2c(c(O)c1C/C=C(\C)CCC(=O)O)C(=O)OC2 | inactive |
| COc1c(C)c2c(c(O)c1C/C=C(\C)CCC(=O)OCCN1CCOCC1)C(=O)OC2 | inactive |
| CN(N=O)C(=O)N[C@@H]1[C@@H](O)[C@H](O)[C@@H](CO)O[C@@H]1O | inactive |
| CCc1ccc(CCOc2ccc(CC3SC(=O)NC3=O)cc2)nc1 (stereo unspecified) | inactive |
| COc1cc(Nc2c(C#N)cnc3cc(OCCCN4CCN(C)CC4)c(OC)cc23)c(Cl)cc1Cl | inactive |
| O=C(O[C@@H]1Cc2c(O)cc(O)cc2O[C@@H]1c1cc(O)c(O)c(O)c1)c1cc(O)c(O)c(O)c1 | inactive |
| COc1nc(N)nc2c1ncn2[C@@H]1O[C@H](CO)[C@@H](O)[C@@H]1O | inactive |
| CCN(CC)CCNC(=O)c1c(C)[nH]c(/C=C2\C(=O)Nc3ccc(F)cc32)c1C | inactive |
| Cc1ccc(Nc2nccc(N(C)c3ccc4c(C)n(C)nc4c3)n2)cc1S(N)(=O)=O | inactive |
| Nc1ncn([C@H]2C[C@H](O)[C@@H](CO)O2)c(=O)n1 | inactive |
| C#Cc1cccc(Nc2ncnc3cc(OCCOC)c(OCCOC)cc23)c1 | inactive |
| CCCC(CCC)C(=O)O | inactive |
| CC/C(=C(\c1ccccc1)c1ccc(OCCN(C)C)cc1)c1ccccc1 | active |
| O=C(NOCC1CC1)c1ccc(F)c(F)c1Nc1ccc(I)cc1Cl | inactive |
| CNC(=O)c1ccccc1Sc1ccc2c(/C=C/c3ccccn3)n[nH]c2c1 | inactive |
| Nc1nc(Cl)nc2c1ncn2[C@@H]1O[C@H](CO)[C@@H](O)[C@@H]1F | inactive |
